Test: Pharmacokinetic parameters in C57/BLKS/J(mLepr^db/db) mice (plasma concentration after peroral gavage)
Assay type: in vivo
Settings: mouse, oral, perorally by gavage 25 mg/kg, male C57/BLKS/J(mLepr^db/db) mice, read-out: mean plasma conc.
assay_metric: concentration at 120 min (ng/mL)
Give just the number in ng/mL; leave the unit off.

molecule: CC(C)c1onc(-c2c(Cl)cccc2Cl)c1COc1ccc(N(C)Cc2ccc(C(=O)O)cc2)c(C(F)(F)F)n1 [Example 28]
concentration at 120 min [ng/mL]: 287

input: Suppose we examine the molecule CC(C)c1onc(-c2c(Cl)cccc2Cl)c1COc1ccc(/C=C/c2cccc(C(=O)O)c2)c(Cl)c1 [Compound B, reference compound] ; what concentration at 120 min value has been reported?
output: 164
